study_target: human NHE-1 (Homo sapiens)
Sequence (P19634 whole entry): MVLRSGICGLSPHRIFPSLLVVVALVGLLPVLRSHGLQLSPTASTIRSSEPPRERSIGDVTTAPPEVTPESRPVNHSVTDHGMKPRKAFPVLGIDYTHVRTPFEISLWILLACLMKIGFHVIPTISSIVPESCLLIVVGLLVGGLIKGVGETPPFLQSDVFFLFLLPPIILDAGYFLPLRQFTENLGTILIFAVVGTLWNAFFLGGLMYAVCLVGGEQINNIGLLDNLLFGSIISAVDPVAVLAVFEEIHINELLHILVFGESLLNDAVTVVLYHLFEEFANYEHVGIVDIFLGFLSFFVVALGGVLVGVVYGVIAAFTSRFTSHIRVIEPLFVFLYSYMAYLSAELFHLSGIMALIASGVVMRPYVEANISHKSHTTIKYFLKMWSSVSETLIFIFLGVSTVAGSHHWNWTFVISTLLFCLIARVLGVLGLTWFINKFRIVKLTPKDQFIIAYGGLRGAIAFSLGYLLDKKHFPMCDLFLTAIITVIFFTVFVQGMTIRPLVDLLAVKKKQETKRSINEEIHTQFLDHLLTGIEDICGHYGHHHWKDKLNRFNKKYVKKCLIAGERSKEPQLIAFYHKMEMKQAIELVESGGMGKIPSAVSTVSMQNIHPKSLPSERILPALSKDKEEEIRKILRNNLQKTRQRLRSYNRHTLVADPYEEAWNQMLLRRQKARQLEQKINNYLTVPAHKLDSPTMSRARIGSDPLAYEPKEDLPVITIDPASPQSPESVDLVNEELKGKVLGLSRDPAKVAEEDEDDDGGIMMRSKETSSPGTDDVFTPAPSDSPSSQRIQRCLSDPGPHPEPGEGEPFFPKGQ
experiment_notes: FLIPR assay for NHE-1 inhibition by measurement of the recovery in pHi in transfected cell lines
stated_conditions: transfected LAP-1 cell line expressing human NHE-1, BCECF fluorescence, read-out: NHE1 inhibition IC50
pIC50: −log10 of the molar value.
measure_name: pIC50

>>> recorded_number("[H]/N=C(\\N)NC(=O)c1cc(S(C)(=O)=O)c(OC2CC(F)(F)C2)cc1C")
8.23

Data provenance: patent US6878748B2
